Tested on: EKVX NSCLC
MEASUREMENT_DESCRIPTION: NCI tumour cell line growth inhibition, 48 h
Form field: TGI (one value per entry).

Task: // query TGI value for entry O=C1c2ccccc2-c2cc3ccccc3c(=O)n21
Result: > 100 µM

Task: And the next one, O=C1c2ccccc2S(=O)(=O)c2ccccc21 ?
Result: > 100 µM

Task: Please give the result for c1ccc2c(c1)CCCc1cc3ccccc3nc1-2 too.
Result: > 100 µM

Task: Then what about the compound O=C(Oc1c(I)ccccc1=O)c1ccc([N+](=O)[O-])cc1 ?
Result: 28.3 µM

Task: Same thing, different compound: COC(=O)/C(=N\NC(=O)c1ccccc1O)C(C#N)c1ccc(Cl)cc1 (stereo unspecified)
Result: > 100 µM

Task: // next record CN1CC2(CCCCC2)C(O)C12C=CCCC2 (stereo unspecified)
Result: > 100 µM

Each recorded value in this set is attributed to PubChem BioAssay (NCI).
